# System: 883617-216-R-J1-PDC complex spheroids, growth, % test/control;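 also: exposure lasted 7 days after dosing on day 3 of spheroid growth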
# EXPERIMENT NOTES: Anticancer human tumor 883617-216-R-J1-PDC patient-derived bladder carcinoma cell line growth inhibition [AhR]
# RUN CONDITIONS: second compound 1 µM; first compound 0.0316 µM; hits give low values
ASSAY METRIC: viability, T/C (%)
Write it as a number; the unit % goes unstated.

-- ask Recall the recorded viability, T/C for COc1cc(Nc2ncc3c(n2)-c2ccc(Cl)cc2C(c2c(F)cccc2OC)=NC3)ccc1C(=O)O + Cc1cncc(-c2nc(NCCc3c[nH]c4ccccc34)c3ncn(C(C)C)c3n2)c1 with 883617-216-R-J1-PDC complex spheroids, growth, % test/control and state it.
-- reply 91.8

-- ask Recall the recorded viability, T/C for CC[C@@]1(O)C(=O)OCc2c1cc1n(c2=O)Cc2cc3c(CN(C)C)c(O)ccc3nc2-1 + Cc1ccccc1N=Nc1ccc(NC(=O)c2ccnn2C)c(C)c1 with 883617-216-R-J1-PDC complex spheroids, growth, % test/control and state it.
-- reply 66

Further cases:
-- ask Recall the recorded viability, T/C for CC1COCCN1c1cc(-c2ccnn2C)c2ccnc(-c3ccn[nH]3)c2n1 (stereo not drawn) + Cc1ccccc1N=Nc1ccc(NC(=O)c2ccnn2C)c(C)c1 with 883617-216-R-J1-PDC complex spheroids, growth, % test/control and state it.
-- reply 70.3
